# System: conscious male ICR mice
# METHOD NOTES: Mouse acetic acid writhing test (WT)
# Assay type: in vivo
# RUN PARAMETERS: submaximal effective dose i.v., 60 min pretreatment; percentage of the activity found at -5 min
# Protocol: Selected peptides that are identified in Tables A-G have been further specifically subjected to in vivo testing for determination of duration of action of their opioid properties, and the results are reported in Table H hereinafter. […] The nociceptive behavior, i.e. writhing, to be monitored is induced by the intraperitoneal (i.p.) administration of dilute acetic acid. […] Writhing is scored during the 15 minutes following acetic acid administration. […]
Where a SMILES comes first, the peptide text is derived from it. [ ]: non-standard residue; d: D form. The star is where a group is joined. d2Nal = N[C@H](Cc1ccc2ccccc2c1)C(=O)O; NH(thiazol-2-yl) = c1csc(N*)n1; d2Thi = N[C@H](Cc1cccs1)C(=O)O; NH(4-picolyl) = c1cc(CN*)ccn1; dNle = CCCC[C@@H](N)C(=O)O; Morpholide = C1CN(*)CCO1; NHBn = c1ccc(CN*)cc1; X2 = OC1CCN(*)CC1; NEt2 = CCN(CC)*; NHcPr = C1CC1N*; NHPr = CCCN*
MEASUREMENT NAME: % Antinociception 1 hr (%)

[
  {
    "COMPOUND": "CCNC(=O)[C@@H](CCCN)NC(=O)[C@@H](CC(C)C)NC(=O)[C@@H](Cc1ccccc1)NC(=O)[C@H](N)Cc1ccccc1 [Peptide 56, H-D-Phe-D-Phe-D-Leu-D-Orn-NHEt]",
    "MEASUREMENT NAME": "% Antinociception 1 hr",
    "UNIT": "%",
    "READING": 76.3
  },
  {
    "COMPOUND": "CCCC[C@@H](NC(=O)[C@@H](Cc1ccccc1)NC(=O)[C@H](N)Cc1ccccc1)C(=O)N[C@H](CCCNC(=N)N)C(=O)NCc1ccncc1 [Peptide 8, H-D-Phe-D-Phe-D-Nle-D-Arg-NH(4-Pic)] (H-[dF][dF][dNle][dR]-{NH(4-picolyl)})",
    "MEASUREMENT NAME": "% Antinociception 1 hr",
    "UNIT": "%",
    "READING": 66.9
  },
  {
    "COMPOUND": "CC(C)C[C@@H](NC(=O)[C@@H](Cc1ccc2ccccc2c1)NC(=O)[C@H](N)Cc1cccs1)C(=O)N[C@H](CCCNC(=N)N)C(=O)N1CCOCC1 [Peptide 63, H-D-Ala(2Thi)-D-2Nal-D-Leu-D-Arg-Mor] (H-[d2Thi][d2Nal][dL][dR]-Morpholide)",
    "MEASUREMENT NAME": "% Antinociception 1 hr",
    "UNIT": "%",
    "READING": 51.8
  },
  {
    "COMPOUND": "CCCC[C@@H](NC(=O)[C@@H](Cc1ccccc1)NC(=O)[C@H](N)Cc1ccccc1)C(=O)N[C@H](CCCNC(=N)N)C(=O)NC [Peptide 2, H-D-Phe-D-Phe-D-Nle-D-Arg-NHMe] (H-[dF][dF][dNle][dR]-NHMe)",
    "MEASUREMENT NAME": "% Antinociception 1 hr",
    "UNIT": "%",
    "READING": 70.5
  },
  {
    "COMPOUND": "CCCC[C@@H](NC(=O)[C@@H](Cc1ccccc1)NC(=O)[C@H](N)Cc1ccccc1)C(=O)N[C@H](CCCNC(=N)N)C(=O)NCCC [Peptide 3, H-D-Phe-D-Phe-D-Nle-D-Arg-NHPr] (H-[dF][dF][dNle][dR]-NHPr)",
    "MEASUREMENT NAME": "% Antinociception 1 hr",
    "UNIT": "%",
    "READING": 29
  },
  {
    "COMPOUND": "CC(C)C[C@@H](NC(=O)[C@@H](Cc1ccccc1)NC(=O)[C@H](N)Cc1ccccc1)C(=O)N[C@H](CCCN)C(=O)N1CCOCC1 [Peptide 57, H-D-Phe-D-Phe-D-Leu-D-Onn-Mor]",
    "MEASUREMENT NAME": "% Antinociception 1 hr",
    "UNIT": "%",
    "READING": 100
  },
  {
    "COMPOUND": "CCCC[C@@H](NC(=O)[C@@H](Cc1ccccc1)NC(=O)[C@H](N)Cc1ccccc1)C(=O)N[C@H](CCCNC(=N)N)C(=O)Nc1nccs1 [Peptide 13, H-D-Phe-D-Phe-D-Nle-D-Arg-NH(2-Tzl)] (H-[dF][dF][dNle][dR]-{NH(thiazol-2-yl)})",
    "MEASUREMENT NAME": "% Antinociception 1 hr",
    "UNIT": "%",
    "READING": 30.7
  },
  {
    "COMPOUND": "CCCC[C@@H](NC(=O)[C@@H](Cc1ccccc1)NC(=O)[C@H](N)Cc1ccccc1)C(=O)N[C@H](CCCNC(=N)N)C(=O)NCc1ccccc1 [Peptide 14, H-D-Phe-D-Phe-D-Nle-D-Arg-NHBzl] (H-[dF][dF][dNle][dR]-NHBn)",
    "MEASUREMENT NAME": "% Antinociception 1 hr",
    "UNIT": "%",
    "READING": 36
  },
  {
    "COMPOUND": "CCCC[C@@H](NC(=O)[C@@H](Cc1ccccc1)NC(=O)[C@H](N)Cc1ccccc1)C(=O)N[C@H](CCCNC(=N)N)C(=O)N1CCOCC1 [Peptide 6, H-D-Phe-D-Phe-D-Nle-D-Arg-Mor] (H-[dF][dF][dNle][dR]-Morpholide)",
    "MEASUREMENT NAME": "% Antinociception 1 hr",
    "UNIT": "%",
    "READING": 105.7
  },
  {
    "COMPOUND": "CCCC[C@@H](NC(=O)[C@@H](Cc1ccccc1)NC(=O)[C@H](N)Cc1ccccc1)C(=O)N[C@H](CCCNC(=N)N)C(=O)N1CCC(O)CC1 [Peptide 11, H-D-Phe-D-Phe-D-Nle-D-Arg-4-HyP] (H-[dF][dF][dNle][dR]-X2)",
    "MEASUREMENT NAME": "% Antinociception 1 hr",
    "UNIT": "%",
    "READING": 61.8
  },
  {
    "COMPOUND": "CCCC[C@@H](NC(=O)[C@@H](Cc1ccccc1)NC(=O)[C@H](N)Cc1ccccc1)C(=O)N[C@H](CCCNC(=N)N)C(=O)NCC [Peptide 1, H-D-Phe-D-Phe-D-Nle-D-Arg-NHEt] (H-[dF][dF][dNle][dR]-NHEt)",
    "MEASUREMENT NAME": "% Antinociception 1 hr",
    "UNIT": "%",
    "READING": 83.9
  },
  {
    "COMPOUND": "CCCC[C@@H](NC(=O)[C@@H](Cc1ccccc1)NC(=O)[C@H](N)Cc1ccccc1)C(=O)N[C@H](CCCNC(=N)N)C(=O)N(CC)CC [Peptide 7, H-D-Phe-D-Phe-D-Nle-D-Arg-N(Et2)] (H-[dF][dF][dNle][dR]-NEt2)",
    "MEASUREMENT NAME": "% Antinociception 1 hr",
    "UNIT": "%",
    "READING": 67.5
  },
  {
    "COMPOUND": "CCCC[C@@H](NC(=O)[C@@H](Cc1ccccc1)NC(=O)[C@H](N)Cc1ccccc1)C(=O)N[C@H](CCCNC(=N)N)C(=O)NC1CC1 [Peptide 5, H-D-Phe-D-Phe-D-Nle-D-Arg-NH(Cyp)] (H-[dF][dF][dNle][dR]-NHcPr)",
    "MEASUREMENT NAME": "% Antinociception 1 hr",
    "UNIT": "%",
    "READING": 66
  }
]
